# Test system: OVCAR-5 ovarian
# test_protocol: NCI tumour cell line growth inhibition, 48 h
property_name: TGI

O=c1[nH]c(=O)n(C2OC(CO)C(O)C2O)cc1Oc1ccccc1 (stereo not given)
> 100 µM
O=C1OCC2=C1C(c1ccc(Cl)c(Cl)c1)c1cc3c(cc1N2CCO)CCC3 (stereo not given)
15.3 µM
COc1cc2c(cc1OC)C1Cc3cc(OC)c(OC)cc3C(C2)N1C
> 100 µM
CN1CCC2(CC1)C(=NC1CCCCC1)NC(=S)N2c1ccccc1
> 100 µM
COC(=O)[C@H](Cc1ccc(OC(C)(C)C)cc1)N[C@H](C)C(=O)N[C@@H](Cc1ccccc1)C(=O)OCc1ccccc1
> 100 µM
CCCCCCCCC(=O)OCC(CS[As](C)C)OC(=O)CCCCCCCC (stereo not given)
10 µM
CC(C)(CCCCC(C)(C)[N+](C)(C)C)[N+](C)(C)C
> 100 µM
NCCNCc1c2ccccc2c(CNCCN)c2ccccc12
97.5 µM
Cc1ccc(Cl)c(Nc2ccccc2C(=O)O)c1Cl
98.9 µM
NC(N)=N/N=C/c1ccc(-c2ccc(-c3cc(Cl)cc(Cl)c3)s2)cc1
3.02 µM

---

# System: KM12 colon
# test_protocol: NCI tumour cell line growth inhibition, 48 h
Quick list: GI50 per entry.
property_name: GI50

CC(=O)c1cc(C(=O)c2ccc3c(c2)Sc2ccccc2N3)c2cc(C)ccn12
0.0425 µM
O=c1oc2ccc(Br)cc2c(=O)n1-c1ccc(I)cc1F
1.66 µM
COc1ccc(-n2ccnc2-c2cc(OC)c(OC)c(OC)c2)cc1
4.59 µM
O=C(Nc1n[nH]c2nnc(-c3cccnc3)cc12)C1CC1
5.22 µM
COc1ccc(/C=C/C(=O)c2ccc(OC)c(OC)c2)cc1O
3.57 µM
COc1ccc(/C=C2\C=C(c3ccccc3)N(CCc3ccccc3)C2=O)cc1OC
22.2 µM
CC(=O)OC1CC2C3CCC4C[C@@H](NC(=O)C=C(C)C)CC[C@]4(C)C3CC[C@]2(C)[C@H]1C(C)N(C)C (stereo partly drawn)
2.55 µM
Cc1ccc(Cl)c(Nc2ccccc2C(=O)O)c1Cl
29.3 µM

---

# Tested on: CCRF-CEM leukemia
# test_protocol: NCI tumour cell line growth inhibition, 48 h
property_name: TGI

O=C(O)c1ccc(C(=O)O)c(C(=O)Nc2ccc3c(c2)C(=O)c2ccccc2-3)c1
> 100 µM
CSC12c3cc(C)n(-c4ccccc4)c3CC(C)(C)CN1C(=O)C2Oc1ccccc1 (stereo not given)
> 100 µM
Cc1cc(N(CCCl)CCCl)ccc1C=Nc1ccc2ccccc2c1
> 100 µM
CC(=O)OC1CC2C3CCC4C[C@@H](NC(=O)C=C(C)C)CC[C@]4(C)C3CC[C@]2(C)[C@H]1C(C)N(C)C (stereo not given in full)
8.15 µM
CC(=O)NC(Cc1ccsc1)C(=O)O (stereo not given)
> 100 µM
Cn1c(NCC(O)CN2CCCC2)cc(=O)n(C)c1=O (stereo not given)
> 100 µM
O=C(C/C(=N/O)c1cc(-c2ccccc2)no1)c1ccccc1
> 100 µM
FC(F)(Sc1ncc[nH]1)c1nc2ccccc2o1
> 100 µM
Cc1cc(C)nc(NS(=O)(=O)c2ccc(Nc3c4ccc(Cl)cc4nc4c(C(=O)NCCN(C)C)cccc34)cc2)n1
> 100 µM
CC(C)(C)c1cc2c(O)c(c1)Cc1cc(C(C)(C)C)cc(c1O)Cc1cc(C(C)(C)C)cc(c1O)Cc1cc(C(C)(C)C)cc(c1O)Cc1cc(C(C)(C)C)cc(c1O)Cc1cc(C(C)(C)C)cc(c1O)Cc1cc(C(C)(C)C)cc(c1O)Cc1cc(C(C)(C)C)cc(c1O)C2
> 50 µM
O=C(CNC(c1ccccc1)(c1ccccc1)c1ccccc1)NC1CCCCC1NC(=O)CNC(c1ccccc1)(c1ccccc1)c1ccccc1 (stereo not given)
> 100 µM
CCCCCCCCn1ccc2cc(NC(=O)Cn3cc(CN4CCCCC4)nn3)ccc21
7.74 µM
Cc1ccc(Cl)c(Nc2ccccc2C(=O)O)c1Cl
90.1 µM
CC(C)Cc1cc2c(cc1O)CCC1C2CC[C@@]2(C)C1CC[C@@H]2O (stereo not given in full)
27.1 µM
O=C1CSC(c2c[nH]c3ccccc23)N1c1ccccc1[N+](=O)[O-] (stereo not given)
> 100 µM
C=C(CN1CC2C[C@](C(=O)OC)(c3cc4ccccc4[nH]3)C1C(OC)C2OC)S(=O)(=O)c1ccccc1 (stereo not given in full)
> 77.2 µM
CCCCCC/C=C1\CCC(CN2CCOCC2)C1=O (stereo not given)
> 25.4 µM
O=C(O)CCCc1ccc2ccccc2c1
> 100 µM
O=C(CCCl)NNC1=NCCCN1
> 100 µM
CN1CCN(Cc2ccc(NC(=O)c3cccc(C#Cc4cnc(N)c5ncccc45)c3F)cc2C(F)(F)F)CC1
3.67 µM
Cn1c(/C=C/[N+](=O)[O-])cc2ccccc21
> 100 µM
Cc1nnc(N)nc1/C=C/c1c(O)ccc2ccccc12
> 100 µM
c1ccc2c(c1)CCc1[nH]c3c(c1-2)-c1ccccc1CC3
> 100 µM
O=C1CC(=O)NC(=NNS(=O)(=O)c2ccccc2)N1
> 100 µM
OCCN1CCN2C=C(C3CCCC4N(CCO)CCN34)CCC21 (stereo not given)
36.3 µM
O=C1C=CC(=O)c2c1ccc1c3ccccc3n(-c3ccccc3[N+](=O)[O-])c21
> 31.6 µM
O=C(NCCNCCCNC(=O)c1cc(-c2ccccc2)nc2ccccc12)c1cccc(OCc2ccccc2)c1OCc1ccccc1
3.47 µM
CCN(CC)Cc1c(/C=C\c2cc(OC)c(OC)c(OC)c2)ccc(OC)c1O
> 100 µM
NNC(=O)N/N=C1\C(=O)N(c2ccc(Cl)c(Cl)c2)C(=O)C(=O)C1c1nc2ccccc2s1 (stereo not given)
> 100 µM
COc1ccc(/C=C/C(=O)c2ccc(OC)c(OC)c2)cc1O
23.9 µM
O=C1c2cc([N+](=O)[O-])ccc2-c2ccc3c4ccc5c6c(ccc(c7ccc1c2c73)c64)C(=O)c1cc([N+](=O)[O-])ccc1-5
> 100 µM
Cc1c2ccncc2c(C)c2c1[nH]c1ccc(OCC(F)(F)F)cc12
4.9 µM
COc1ccc(/C=C2\C=C(c3ccccc3)N(CCc3ccccc3)C2=O)cc1OC
> 100 µM
O=C(CSc1nc2ccc(I)cc2c(=O)n1Cc1ccccc1)NNC(=O)c1ccccc1
> 100 µM
COC1(O)c2cccc(Cl)c2C(=O)N1C1(C(N)=O)CCCCC1 (stereo not given)
> 100 µM
OCc1ccc(N2CCc3ccccc3C2)cc1Cl
99.6 µM
N/N=c1\c2ccccc2c2cc3c(cc12)/c(=N/N)c1ccccc13
> 100 µM
COC(=O)C1=C(C(=O)OC)C2(C)Nc3ccccc3C2=C(c2ccccc2)C1 (stereo not given)
47.4 µM
CC(=O)OC12c3ccccc3-c3ccccc3C1C1C(=O)OC(=O)C12 (stereo not given)
> 10 µM
Fc1ccc(-c2sc(-c3cccs3)cc2Cc2cccs2)cc1
> 100 µM
